- Species: Rattus norvegicus
- protocol details: Open TG-GATES - Regimen: Single
- Type: toxicity, organism-based, Sprague-Dawley
- Design: regimen Single, gender Male, age 6 weeks
- setup conditions: in vivo, po, 300 mg/kg, 24 h, tissue Plasma, route gavage, dose level Middle
// reported AST per item
measured parameter: AST (IU/L)

compound: O=C(OC[C@H]1O[C@@H](OC(=O)c2cc(O)c(O)c(OC(=O)c3cc(O)c(O)c(O)c3)c2)[C@H](OC(=O)c2cc(O)c(O)c(OC(=O)c3cc(O)c(O)c(O)c3)c2)[C@@H](OC(=O)c2cc(O)c(O)c(OC(=O)c3cc(O)c(O)c(O)c3)c2)[C@@H]1OC(=O)c1cc(O)c(O)c(OC(=O)c2cc(O)c(O)c(O)c2)c1)c1cc(O)c(O)c(OC(=O)c2cc(O)c(O)c(O)c2)c1 [TANNIC ACID]
readout value: 67.8
--
compound: CNC(=C[N+](=O)[O-])NCCSCc1ccc(CN(C)C)o1 [RANITIDINE]
readout value: 63.2
--
compound: Cc1nnc2n1-c1ccc(Cl)cc1C(c1ccccc1Cl)=NC2 [TRIAZOLAM]
readout value: 66.2
--
compound: COC(=O)C1=C(C)NC(C)=C(C(=O)OC)C1c1ccccc1[N+](=O)[O-] [NIFEDIPINE]
readout value: 68.4
--
compound: CN/C(=N/CCSCc1nc[nH]c1C)NC#N [CIMETIDINE]
readout value: 67.8

Data origin, for the record: ChEMBL document CHEMBL3885861
